Ref: paper PMC11641365

# Tested on: human colon cancer cell lines: HCT 116, SW620, LoVo, Caco-2, and HT-29
# Experiment: MTT cell viability assay, statements across the panel
# Format: cell-based
# Reported conditions: range over the cancer cell lines, read-out: IC50 range against colon cancer cell lines
pIC50: −log10 of the molar value.
Recorded endpoint: pIC50

Compound structure: O=C1/C(=C/c2ccccc2)COc2ccccc21
Recorded endpoint: pIC50
Observed value: 4.70 to 5.10

###

# Tested on: Caco-2
# Experiment: MTT cell viability assay
# Assay type: cell-based, human
# Reported conditions: 24 h incubation with compound, mean ± SD of three experiments, read-out: Cytotoxic effect, IC50
pIC50: −log10 of the molar value.
# Lookup of reported pIC50 keyed by entry
Recorded endpoint: pIC50

Molecule: O=C1/C(=C/c2ccccc2)C(c2ccccc2)Oc2ccccc21 (centres unmarked)
Experimental target: Caco-2
Observed value: 4.14

Molecule: COc1cccc(/C=C2/C(=O)c3ccccc3OC2c2ccccc2)c1 (centres unmarked)
Experimental target: Caco-2
Observed value: 4.16

###

# System: HCT 116
# Experiment: MTT cell viability assay
# Assay type: cell-based
# Reported conditions: Homo sapiens, 24 h incubation with compound, mean ± SD of three experiments, read-out: Cytotoxic effect, IC50

Molecule: CCN(CC)c1ccc(/C=C2/C(=O)c3ccccc3OC2c2ccccc2)cc1 (stereo not shown)
IC50 (µM): 192
--
Molecule: Cc1ccc(/C=C2/C(=O)c3ccccc3OC2c2ccccc2)cc1 (stereo not shown)
IC50 (µM): 113
--
Molecule: COc1cccc(/C=C2/C(=O)c3ccccc3OC2c2ccccc2)c1 (stereo not shown)
IC50 (µM): 18.6
--
Molecule: O=C1/C(=C/c2ccccc2)COc2ccccc21
IC50 (µM): 10.1

###

# Tested on: HT-29
# Experiment: MTT cell viability assay
# Format: cell-based, human
# Reported conditions: HT-29, 24 h incubation with compound, mean ± SD of three experiments, read-out: Cytotoxic effect, IC50

Compound: COc1cccc(/C=C2/C(=O)c3ccccc3OC2c2ccccc2)c1 (stereo not shown)
Result unit: µM
IC50: 117
